Measured values drawn from paper PMC12007089 for this set.

Quick list: ratio arom. per entry.
- TESTED ON: porcine pancreatic α-amylase (Sus scrofa, UniProt P00690)
- Sequence (P00690 16-511): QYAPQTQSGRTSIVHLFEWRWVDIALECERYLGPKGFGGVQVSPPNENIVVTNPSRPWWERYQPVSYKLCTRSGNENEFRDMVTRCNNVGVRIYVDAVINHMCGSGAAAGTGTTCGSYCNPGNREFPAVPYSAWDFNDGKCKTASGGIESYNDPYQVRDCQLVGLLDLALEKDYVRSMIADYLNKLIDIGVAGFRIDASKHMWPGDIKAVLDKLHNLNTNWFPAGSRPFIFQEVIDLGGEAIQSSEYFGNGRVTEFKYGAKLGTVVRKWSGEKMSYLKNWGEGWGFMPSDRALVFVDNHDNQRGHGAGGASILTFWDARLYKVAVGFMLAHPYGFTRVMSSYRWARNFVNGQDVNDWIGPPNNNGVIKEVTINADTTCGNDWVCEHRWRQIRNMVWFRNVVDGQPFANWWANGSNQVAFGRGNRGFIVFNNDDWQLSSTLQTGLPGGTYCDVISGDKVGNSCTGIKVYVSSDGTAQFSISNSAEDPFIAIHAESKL
- EXPERIMENT SUMMARY: Saturation transfer difference (STD)-NMR interaction study
- Format: binding
- TEST CONTEXT: share of aromatic proton saturation
Answer with the value's number alone.

Here's what some known entries look like.
Oc1cc(O)c2c(c1)O[C@H](c1ccc(O)c(O)c1)[C@H](O)[C@H]2c1c(O)cc(O)c2c1O[C@H](c1ccc(O)c(O)c1)[C@H](O)C2 | 60
Oc1cc(O)c2c(c1)O[C@H](c1ccc(O)c(O)c1)[C@@H](O)C2 [CAT, (+)-Catechin] | 79
Oc1cc(O)c2c(c1)O[C@H](c1ccc(O)c(O)c1)[C@H](O)[C@H]2c1c(O)cc(O)c2c1O[C@H](c1ccc(O)c(O)c1)[C@@H](O)C2 | 56

// recorded ratio arom. for Oc1cc(O)c2c(c1)O[C@H](c1ccc(O)c(O)c1)[C@H](O)C2 [EC, (−)-Epicatechin] : 79

// recorded ratio arom. for Oc1cc(O)c2c(c1)O[C@H](c1ccc(O)c(O)c1)[C@H](O)[C@H]2c1c(O)cc(O)c2c1O[C@H](c1ccc(O)c(O)c1)[C@H](O)[C@H]2c1c(O)cc(O)c2c1O[C@H](c1ccc(O)c(O)c1)[C@H](O)C2 : 61
